// data source = patent US7919508B2

# Ki per entry
- systemUnderTest: human dopamine D1 receptor (Homo sapiens, UniProt P21728)
- Construct: A 1.4 Kb Hind III to Xho I fragment was subcloned into the vector pMMLV; expressed in transfected cells; host or cells: CHO cells, clone CHO-D1M#9 (plasmid pHD1MMLV), membranes
- Sequence (P21728 whole entry, the tested form may be a part): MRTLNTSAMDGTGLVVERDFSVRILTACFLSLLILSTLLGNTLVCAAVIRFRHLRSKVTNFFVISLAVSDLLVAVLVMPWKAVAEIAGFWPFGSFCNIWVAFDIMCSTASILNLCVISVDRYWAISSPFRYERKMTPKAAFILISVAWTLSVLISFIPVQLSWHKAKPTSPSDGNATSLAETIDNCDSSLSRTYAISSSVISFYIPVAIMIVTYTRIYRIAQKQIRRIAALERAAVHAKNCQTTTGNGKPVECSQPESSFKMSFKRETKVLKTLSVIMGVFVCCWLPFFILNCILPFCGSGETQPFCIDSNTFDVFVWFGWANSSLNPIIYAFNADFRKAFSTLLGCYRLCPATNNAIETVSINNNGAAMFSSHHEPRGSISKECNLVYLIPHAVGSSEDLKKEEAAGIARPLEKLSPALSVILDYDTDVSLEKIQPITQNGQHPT
- protocolSummary: [3H]-SCH-23390 binding to cloned human dopamine D1 receptors (CHO cell membranes)
Structures can show the parent of a compound that is named as a salt.
measuredAttribute: Ki (nM)

1. Cc1ccc2c(c1O)C[C@@H](C1CCN(C(=O)Oc3ccccc3C(F)(F)F)CC1)O[C@H]2CN [Example 119, hydrochloride] | 54
2. Cc1ccc2c(c1O)C[C@@H](C1CCN(C(=O)Oc3ccccc3O)CC1)O[C@H]2CN [Example 121, hydrochloride] | 31
3. Cc1ccc2c(c1O)C[C@@H](C1CCN(C(=O)Oc3ccc(Br)cc3)CC1)O[C@H]2CN [Example 117, hydrochloride] | 59
4. Cc1ccc(OC(=O)N2CCC([C@@H]3Cc4c(ccc(C)c4O)[C@H](CN)O3)CC2)cc1 [Example 114, hydrochloride] | 64.6
5. Cc1ccc2c(c1O)C[C@@H](C1CCN(C(=O)Oc3ccc(Cl)cc3)CC1)O[C@H]2CN [Example 115, hydrochloride] | 39
6. COc1ccc(OC(=O)N2CCC([C@@H]3Cc4c(ccc(C)c4O)[C@H](CN)O3)CC2)cc1 [Example 120, hydrochloride] | 45

* * *

# pEC50 per entry
- systemUnderTest: D1 receptor (Homo sapiens, UniProt P21728)
- Construct: expressed in transfected cells; host or cells: D1 transfected CHO cell line
- protocolSummary: D1 Activation Adenylyl Cyclase Assay (cAMP FlashPlate, D1 transfected CHO cell line)
- Assay type: cell-based
pEC50: −log10 of the molar value. Where a name gives a salt, the structure may show the parent alone.
measuredAttribute: pEC50

1. Cc1ccc2c(c1O)C[C@@H](C1CCN(C(=O)Oc3ccc(Cl)cc3)CC1)O[C@H]2CN [Example 115, hydrochloride] | 7.32
2. Cc1ccc2c(c1O)C[C@@H](C1CCN(C(=O)Oc3ccccc3O)CC1)O[C@H]2CN [Example 121, hydrochloride] | 8.60
3. COc1ccc(OC(=O)N2CCC([C@@H]3Cc4c(ccc(C)c4O)[C@H](CN)O3)CC2)cc1 [Example 120, hydrochloride] | 7.44
4. Cc1ccc2c(c1O)C[C@@H](C1CCN(C(=O)Oc3ccccc3C(F)(F)F)CC1)O[C@H]2CN [Example 119, hydrochloride] | 8.51
5. Cc1ccc(OC(=O)N2CCC([C@@H]3Cc4c(ccc(C)c4O)[C@H](CN)O3)CC2)cc1 [Example 114, hydrochloride] | 9.07
6. Cc1ccc2c(c1O)C[C@@H](C1CCN(C(=O)Oc3ccc(Br)cc3)CC1)O[C@H]2CN [Example 117, hydrochloride] | 8.37
7. Cc1ccc2c(c1O)C[C@@H](C1CCN(C(=O)Oc3ccccc3)CC1)O[C@H]2CN [Example 113, hydrochloride] | 8.38
8. Cc1ccc2c(c1O)C[C@@H](C1CCN(C(=O)Oc3ccccc3Cl)CC1)O[C@H]2CN [Example 116, hydrochloride] | 8.34
9. Cc1ccc2c(c1O)C[C@@H](C1CCN(C(=O)Oc3ccc4ccccc4c3)CC1)O[C@H]2CN [Example 123, hydrochloride] | 8.00
10. Cc1ccc2c(c1O)C[C@@H](C1CCN(C(=O)Oc3ccc(F)cc3)CC1)O[C@H]2CN [Example 118, hydrochloride] | 8.07

* * *

- systemUnderTest: human dopamine D2Long (D2L) receptors (Homo sapiens)
Counter-ions that a name gives are not always drawn.
measuredAttribute: Ki

1. Cc1ccc2c(c1O)C[C@@H](C1CCN(S(=O)(=O)C[C@]34CC[C@H](CC3=O)C4(C)C)CC1)O[C@H]2CN [Example 163, hydrochloride] | ≥ 100000 nM
2. Cc1ccc2c(c1O)C[C@@H](C1CCN(C(=O)Nc3ccccc3F)CC1)O[C@H]2CN [Example 129, hydrochloride] | ≥ 10000 nM
3. Cc1ccc2c(c1O)C[C@@H](C1CCN(S(=O)(=O)N3CCC(Cc4ccccc4)CC3)CC1)O[C@H]2CN [Example 166, hydrochloride] | 246 nM
4. Cc1ccc2c(c1O)C[C@@H](C1CCN(CCNC(=O)Nc3ccccc3)CC1)O[C@H]2CN [Example 193, dihydrobromide] | 284 nM
5. CCCCN1CCC([C@@H]2Cc3c(ccc(C)c3O)[C@H](CN)O2)CC1 [Example 33, dihydrochloride] | ≥ 10000 nM
6. Cc1ccc2c(c1O)C[C@@H](C1CCN(C(=O)Oc3ccc(Br)cc3)CC1)O[C@H]2CN [Example 117, hydrochloride] | 404 nM
7. Cc1ccc2c(c1O)C[C@@H](C1CCN(CCC(C)NC(=O)c3ccc(Cl)cc3Cl)CC1)O[C@H]2CN (stereo partly shown) [Example 17, dihydrochloride] | ≥ 100000 nM

* * *

Where a name gives a salt, the structure may show the parent alone.
human dopamine D2Long (D2L) receptors (Homo sapiens, UniProt P14416) measurements of Ki, listed per entry.
Sequence (P14416 whole entry): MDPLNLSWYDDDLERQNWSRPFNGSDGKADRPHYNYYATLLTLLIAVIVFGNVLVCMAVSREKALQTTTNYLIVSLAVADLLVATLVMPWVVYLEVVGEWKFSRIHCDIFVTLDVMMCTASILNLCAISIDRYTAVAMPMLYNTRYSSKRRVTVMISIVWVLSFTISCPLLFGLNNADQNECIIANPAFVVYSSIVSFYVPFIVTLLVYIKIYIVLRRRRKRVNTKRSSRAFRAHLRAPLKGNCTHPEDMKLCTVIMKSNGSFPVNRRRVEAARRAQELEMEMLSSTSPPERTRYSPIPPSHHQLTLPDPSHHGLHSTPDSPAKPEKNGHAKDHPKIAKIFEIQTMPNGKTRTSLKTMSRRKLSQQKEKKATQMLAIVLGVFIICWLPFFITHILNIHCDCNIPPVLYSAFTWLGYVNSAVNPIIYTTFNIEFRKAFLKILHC
measuredAttribute: Ki (nM)

1. Cc1ccc2c(c1O)C[C@@H](C1CCN(Cc3cn(Cc4ccccc4)c4ccccc34)CC1)O[C@H]2CN [Example 91, dihydrochloride] | 43.4
2. Cc1ccc2c(c1O)C[C@@H](C1CCN(Cc3cc(C(F)(F)F)cc(C(F)(F)F)c3)CC1)O[C@H]2CN [Example 75, dihydrochloride] | 120
3. Cc1ccc2c(c1O)C[C@@H](C1CCN(Cc3cc(C(F)(F)F)ccc3F)CC1)O[C@H]2CN [Example 81, dihydrochloride] | 343
4. Cc1ccc2c(c1O)C[C@@H](C1CCN(Cc3cccc(C(F)(F)F)c3)CC1)O[C@H]2CN [Example 73, dihydrochloride] | 431
5. Cc1ccccc1CN1CCC([C@@H]2Cc3c(ccc(C)c3O)[C@H](CN)O2)CC1 [Example 64, dihydrochloride] | 576
6. Cc1ccc2c(c1O)C[C@@H](C1CCN(Cc3ccc(F)c(C(F)(F)F)c3)CC1)O[C@H]2CN [Example 83, dihydrochloride] | 611
7. COc1ccccc1CN1CCC([C@@H]2Cc3c(ccc(C)c3O)[C@H](CN)O2)CC1 [Example 68, dihydrochloride] | 232
8. CNC[C@@H]1O[C@H](C2CCN(Cc3ccc(C)cc3)CC2)Cc2c1ccc(C)c2O [Example 101, dihydrochloride] | 322
9. Cc1ccc2c(c1O)C[C@@H](C1CCN(C(=O)Nc3cccc(O)c3)CC1)O[C@H]2CN | 328

* * *

- systemUnderTest: human dopamine D2Long (D2L) receptors (Homo sapiens, UniProt P14416)
pKi: −log10 of the molar value. Counter-ions that a name gives are not always drawn.
measuredAttribute: pKi

1. Cc1ccc2c(c1O)C[C@@H](C1CCN(CCC(C)NC(=O)c3ccc(Cl)cc3)CC1)O[C@H]2CN (stereo partly drawn) [Example 13, dihydrochloride] | 6.44
2. Cc1ccc2c(c1O)C[C@@H](C1CCN(Cc3ccc(-c4ccccc4)cc3)CC1)O[C@H]2CN [Example 49, dihydrochloride] | 6.51
3. COc1ccc(S(=O)(=O)N2CCC([C@@H]3Cc4c(ccc(C)c4O)[C@H](CN)O3)CC2)cc1OC [Example 144, hydrochloride] | 6.22
4. Cc1ccc2c(c1O)C[C@@H](C1CCN(Cc3cccc(C(F)(F)F)c3Cl)CC1)O[C@H]2CN [Example 79, dihydrochloride] | 6.51
5. Cc1ccc2c(c1O)C[C@@H](C1CCN(CCNC(=O)c3ccccc3)CC1)O[C@H]2CN [Example 191, dihydrobromide] | 6.38

* * *

- systemUnderTest: D1 receptor (Homo sapiens)
- Construct: expressed in transfected cells; host or cells: D1 transfected CHO cell line
- protocolSummary: D1 Activation Adenylyl Cyclase Assay (cAMP FlashPlate, D1 transfected CHO cell line)
- Assay type: cell-based
- assayContext: agonist activity at the D1 receptor, adenylate cyclase assay, D1 transfected CHO cell line; read-out: D1 EC50
Structures can show the parent of a compound that is named as a salt.
# EC50 per entry
measuredAttribute: EC50 (nM)

1) Cc1ccc2c(c1O)C[C@@H](C1CCN(Cc3csc4ccccc34)CC1)O[C@H]2CN [Example 87, dihydrochloride] | 27
2) Cc1ccc2c(c1O)C[C@@H](C1CCN(S(=O)(=O)c3cc(Cl)ccc3Cl)CC1)O[C@H]2CN [Example 151, hydrochloride] | 58
3) Cc1ccc2c(c1O)C[C@@H](C1CCN(CCC(C)C)CC1)O[C@H]2CN [Example 41, dihydrochloride] | 250
4) Cc1ccc2c(c1O)C[C@@H](C1CCN(Cc3cc4ccccc4n3C)CC1)O[C@H]2CN [Example 88, dihydrochloride] | 29

* * *

# EC50 per entry
- systemUnderTest: D1 receptor (Homo sapiens)
- Construct: expressed in transfected cells; host or cells: D1 transfected CHO cell line
- protocolSummary: D1 Activation Adenylyl Cyclase Assay (cAMP FlashPlate, D1 transfected CHO cell line)
- Assay type: cell-based
- assayContext: agonist activity at the D1 receptor, adenylate cyclase assay, D1 transfected CHO cell line; read-out: D1 EC50
Structures can show the parent of a compound that is named as a salt.
measuredAttribute: EC50 (nM)

1. Cc1ccc2c(c1O)C[C@@H](C1CCN(Cc3ccc(Cl)cc3Cl)CC1)O[C@H]2CN [Example 59, dihydrochloride] | 12
2. Cc1ccc2c(c1O)C[C@@H](C1CCN(Cc3cccs3)CC1)O[C@H]2CN [Example 47, dihydrochloride] | 170
3. Cc1ccc2c(c1O)C[C@@H](C1CCN(C(=O)Nc3cc(C(F)(F)F)ccc3F)CC1)O[C@H]2CN [Example 124, hydrobromide] | 20
4. Cc1ccc2c(c1O)C[C@@H](C1CCN(CC(c3ccccc3)c3ccccc3)CC1)O[C@H]2CN [Example 28, dihydrobromide] | 131
5. Cc1ccc2c(c1O)C[C@@H](C1CCN(Cc3cc(C(F)(F)F)ccc3C(F)(F)F)CC1)O[C@H]2CN [Example 76, dihydrochloride] | 580
6. CCC(CN1CCC([C@@H]2Cc3c(ccc(C)c3O)[C@H](CNC)O2)CC1)c1ccccc1 (stereo partly shown) [Example 194, dihydrochloride] | 34
7. Cc1ccc2c(c1O)C[C@@H](C1CCN(CCNC(=O)c3ccccc3)CC1)O[C@H]2CN [Example 191, dihydrobromide] | 180
